This collection of values is drawn from ChEMBL document CHEMBL4689842.

- System: Fibroblast
- assay: Multiplex assay against human fibroblast
- Assay type: toxicity, cell-based
- assay setup: 12 h, 10 µM, compound concentration 10 uM, replicate 2
Could you please mark t for values of Population Mitochondria Different-Phenotype (%) below 30% and f for values at or above it?

CCn1c(=O)c(-c2ccc(-c3cncs3)cc2Cl)cc2cnc(Nc3ccc(N4CCN(C)CC4)cc3)nc21
t
Cc1ccc2nc(NCCN)c3ncc(C)n3c2c1.O=C(O)C(F)(F)F.O=C(O)C(F)(F)F
f
CN1C2CCC1CC(OC(c1ccc(F)cc1)c1ccc(F)cc1)C2.Cl (configuration not stated)
f
CCc1cccc(CC)c1NC(=O)c1nn(C)c2c1CCc1cnc(Nc3ccc(C(=O)NC4CCN(C)CC4)cc3OC(F)(F)F)nc1-2
f
CNC(=O)c1ccc(Nc2nc(OC3CCCC3)c3c(-c4ccc5nc(C)oc5c4)c[nH]c3n2)c(OC)c1
t
C=CCn1c(=O)c2cnc(Nc3ccc(N4CCN(C)CC4)cc3)nc2n1-c1cccc(C(C)(C)O)n1
t
Cl.Oc1ccc2c3c1O[C@H]1c4[nH]c5c(c4C[C@@]4(O)[C@@H](C2)N(CC2CC2)CC[C@]314)C[C@@]1(O)[C@H]2Cc3ccc(O)c4c3[C@@]1(CCN2CC1CC1)[C@H]5O4
t

* * *

Each entry below carries its reported Population Normal (%).
- System: Fibroblast
- assay: Multiplex assay against human fibroblast
- Assay type: toxicity, cell-based
- assay setup: 48 h, 1 µM, compound concentration 1 uM, replicate 2
readout name: Population Normal (%)

CCCn1c(=O)c2[nH]c(-c3cnn(Cc4cccc(C(F)(F)F)c4)c3)nc2n(CC)c1=O [GS 6201]
89
CCOc1cc2ncc(C#N)c(Nc3ccc(OCc4ccccn4)c(Cl)c3)c2cc1NC(=O)/C=C/CN(C)C [NERATINIB]
87
C=C1/C(=C\C=C2/CCC[C@]3(C)[C@@H]([C@H](C)/C=C/[C@H](C)C(C)C)CC[C@@H]23)C[C@@H](O)C[C@@H]1O [DOXERCALCIFEROL]
57
CCOC(=O)c1c(C)[nH]c2ccc3c(c12)CN1CCc2cc(OC)ccc2C1O3 (configuration not stated)
88
O=C1NC(=O)C(c2cnc3ccccn23)=C1c1cn2c3c(cc(F)cc13)CN(C(=O)N1CCCCC1)CC2 [LY-2090314]
91
CCN1CCN(Cc2ccc(Nc3ncc(F)c(-c4cc(F)c5nc(C)n(C(C)C)c5c4)n3)nc2)CC1.CS(=O)(=O)O
83
CNc1cc(Oc2cc(C(=O)Nc3cc(N4CCN(C)CC4)cc(C(F)(F)F)c3)ccc2C)ncn1
76

* * *

Listing: Population Normal (%) of selected compounds
- System: Fibroblast
- assay: Multiplex assay against human fibroblast
- Type: toxicity, cell-based
- assay setup: 48 h, 10 µM, compound concentration 10 uM, replicate 1
readout name: Population Normal (%)

CCN1CCN(Cc2ccc(Nc3ncc(F)c(-c4cc(F)c5nc(C)n(C(C)C)c5c4)n3)nc2)CC1.CS(=O)(=O)O
66%
CN(C)C(=O)C(CCN1CCC(O)(c2ccc(Cl)cc2)CC1)(c1ccccc1)c1ccccc1.Cl [LOPERAMIDE HYDROCHLORIDE]
63%
CN1CCN(C(=O)C(C)(C)c2ccc(C(=O)Nc3cn4cc(-c5ccncc5)ccc4n3)cc2)CC1
82%
Cl.Oc1ccc2c3c1O[C@H]1c4[nH]c5c(c4C[C@@]4(O)[C@@H](C2)N(CC2CC2)CC[C@]314)C[C@@]1(O)[C@H]2Cc3ccc(O)c4c3[C@@]1(CCN2CC1CC1)[C@H]5O4
81%
CCOC(=O)c1c(C)[nH]c2ccc3c(c12)CN1CCc2cc(OC)ccc2C1O3 (stereo not given)
71%
O=C(Nc1ccc(-n2nc(-c3cccnc3)cc2C(F)(F)F)cn1)c1ccc(-c2ccccc2)c(F)c1
84%
CCc1cccc(CC)c1NC(=O)c1nn(C)c2c1CCc1cnc(Nc3ccc(C(=O)NC4CCN(C)CC4)cc3OC(F)(F)F)nc1-2
61%
Cc1ccc(C(=O)Nc2cccc(C(F)(F)F)c2)cc1Nc1nc(-c2cccnc2)nc2c1cnn2C
78%
O=C1N/C(=N/c2ccccc2F)S/C1=C\c1ccc(C(=O)O)cc1
43%
COc1cc(N2CCN(C)CC2)ccc1Nc1ncc2c(n1)N(C)c1ccccc1C(=O)N2C
71%
Cl.O=C(c1ccc(Nc2nccc(-c3cc4ccccc4s3)n2)cc1)N1CCC(N2CCCC2)CC1
50%
C=C1/C(=C\C=C2/CCC[C@]3(C)[C@@H]([C@H](C)/C=C/[C@H](C)C(C)C)CC[C@@H]23)C[C@@H](O)C[C@@H]1O
87%
S=C(NCCCc1c[nH]cn1)NCCCN(Cc1ccc(Cl)c(Cl)c1)c1ccc(Br)cn1
65%
CCCn1c(=O)c2[nH]c(-c3cnn(Cc4cccc(C(F)(F)F)c4)c3)nc2n(CC)c1=O
68%
CNc1cc(Oc2cc(C(=O)Nc3cc(N4CCN(C)CC4)cc(C(F)(F)F)c3)ccc2C)ncn1
69%
Cc1cn(-c2cc(NC(=O)c3ccc(C)c(Nc4nccc(-c5cccnc5)n4)c3)cc(C(F)(F)F)c2)cn1
38%
CCn1c(=O)c(-c2ccc(-c3cncs3)cc2Cl)cc2cnc(Nc3ccc(N4CCN(C)CC4)cc3)nc21
40%
CN1CCC(=C2c3ccccc3CC(=O)c3sccc32)CC1.O=C(O)/C=C/C(=O)O [KETOTIFEN FUMARATE]
68%
O=C(Nc1ccc(-c2ccnc(Nc3ccc(N4CCOCC4)cc3)n2)cc1)[C@@H]1CCCN1
77%
CCCS(=O)(=O)c1nc(NC2CC2)cc(-c2ccc3c(ccn3C3CC(C)(C)NC(C)(C)C3)c2)n1
60%
Cl.O=c1c2cccn2c2ccccc2n1CCCN1CCC(c2ccc(Cl)cc2)CC1
51%
CN1C2CCC1CC(OC(c1ccc(F)cc1)c1ccc(F)cc1)C2.Cl (stereo not given)
74%
COCC(=O)NC/C=C/c1ccc2ncnc(Nc3ccc(Oc4ccc(C)nc4)c(C)c3)c2c1
85%
CCOc1cc(C(=O)N2CCC(N3CCN(C)CC3)CC2)ccc1Nc1ncc2c(n1)N(C1CCCC1)c1ccccc1C(=O)N2C
75%
O=C(Nc1ccc(Cl)cc1)Nc1cccc(-c2cccc(N3CCCC3)n2)c1
54%
